Would you mind telling me the reported melting point of each entry?

// sample Cl.NC(CO)(CO)CCCCc1ccc(Oc2cccc(OCc3ccccc3)c2)cc1Cl , its melting point was 95 to 97 °C

// sample Cl.NC(CO)(CO)CCc1ccc(Oc2cccc(OCc3ccccc3)c2)cc1Cl , its melting point was 150 to 152 °C

// sample Cl.NC(CO)(CO)CCCc1ccc(Oc2cccc(OCCCc3ccccc3)c2)cc1 [Example 148] , its melting point was 95 to 98 °C

// sample Cl.NC(CO)(CO)CCOc1ccc(Oc2cc(C(F)(F)F)cc(C(F)(F)F)c2)cc1 , its melting point was 151 to 155 °C

// sample Cl.NC(CO)(CO)C/C=C/c1ccc(Oc2cc(C(F)(F)F)cc(C(F)(F)F)c2)cc1 , its melting point was 203 to 206 °C

// sample Cl.NC(CO)(CO)CCCc1ccc(Oc2cccc(OCc3ccccc3)c2)cc1Cl [Example 173] , its melting point was 105 to 106 °C

// sample Cl.NC(CO)(CO)CCCc1ccc(Oc2cc(C(F)(F)F)cc(C(F)(F)F)c2)cc1 [Example 147] , its melting point was 194 to 196 °C
